- assay.comment: PK/PD duration of effect study, single oral gavage dose: administered compound level in liver
- Format: in vivo, C57BL/6 mice
- condition.description: C57BL/6, mouse, 1 hr after 500 mg/kg oral gavage, pre-dose BQL, read-out: transcyclohexyl NaR dimer concentration
measurement.kind: concentration at 1 h (ng/g)
Numeric only. Scale: ng/g

Look up concentration at 1 h for this compound: CC(=O)OC[C@H]1O[C@@H]([n+]2cccc(C(=O)O[C@H]3CC[C@H](OC(=O)c4ccc[n+]([C@@H]5O[C@H](COC(C)=O)[C@@H](OC(C)=O)[C@H]5OC(C)=O)c4)CC3)c2)[C@H](OC(C)=O)[C@@H]1OC(C)=O [transcyclohexyl NaR dimer]
232
